Listing: sequence coverage of selected binders
target: T1, endogenous p97 (human, UniProt P55072 2-806); assay: Flag co-IP, 293 cells, MudPIT MS
T1 construct: also called VCP
T1 sequence (P55072 2-806 limits assumed): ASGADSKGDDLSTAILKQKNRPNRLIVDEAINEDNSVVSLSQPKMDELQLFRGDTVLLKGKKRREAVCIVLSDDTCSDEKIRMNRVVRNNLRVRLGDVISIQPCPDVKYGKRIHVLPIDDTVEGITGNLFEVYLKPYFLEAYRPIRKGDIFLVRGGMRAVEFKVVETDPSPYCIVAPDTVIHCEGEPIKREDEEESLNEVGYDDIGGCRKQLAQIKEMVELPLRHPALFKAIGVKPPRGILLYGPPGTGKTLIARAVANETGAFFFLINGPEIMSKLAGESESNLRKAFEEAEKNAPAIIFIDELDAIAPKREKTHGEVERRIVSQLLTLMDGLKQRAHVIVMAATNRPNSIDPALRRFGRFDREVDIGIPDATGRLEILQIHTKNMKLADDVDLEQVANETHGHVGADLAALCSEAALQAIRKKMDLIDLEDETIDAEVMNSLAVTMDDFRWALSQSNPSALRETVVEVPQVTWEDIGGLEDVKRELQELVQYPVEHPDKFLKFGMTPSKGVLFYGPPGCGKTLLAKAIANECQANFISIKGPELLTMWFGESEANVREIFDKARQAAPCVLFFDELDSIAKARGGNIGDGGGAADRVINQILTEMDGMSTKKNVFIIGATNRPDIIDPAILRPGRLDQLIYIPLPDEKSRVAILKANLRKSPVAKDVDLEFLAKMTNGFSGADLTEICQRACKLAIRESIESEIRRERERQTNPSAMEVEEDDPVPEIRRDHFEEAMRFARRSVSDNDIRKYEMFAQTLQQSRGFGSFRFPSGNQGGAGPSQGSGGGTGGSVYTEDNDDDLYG
I only need the number, in %, no unit after it.

[
  {
    "BINDER": "Flag-p47 (other, UniProt O35987 1-370, looked up, also called RDB 2148; not shown: N-terminal Flag tag) MAEERQDALREFVAVTGAEEDRARFFLESAGWDLQIALASFYEDGGDEDIVTISQATPSSVSRGTAPSDNRVTSFRDLIHDQDEEEEEEEGQRFYAGGSERSGQQIVGPPRKKSPNELVDDLFKGAKEHGAVAVERVTKSPGETSKPRPFAGGGYRLGAAPEEESAYVAGERRRHSGQDVHVVLKLWKTGFSLDNGDLRSYQDPSNAQFLESIRRGEVPAELRRLAHGGQVNLDMEDHRDEDFVKPKGAFKAFTGEGQKLGSTAPQVLNTSSPAQQAENEAKASSSILINEAEPTTNIQIRLADGGRLVQKFNHSHRISDIRLFIVDARPAMAATSFVLMTTFPNKELADENQTLKEANLLNAVIVQRLT",
    "REPORTED MEASUREMENT": 82.7
  },
  {
    "BINDER": "Flag-UBXD6 (other, UniProt O00124 1-270, looked up, also called Rep-8/UBXD6; RDB 2145; not shown: N-terminal Flag tag) MASRGVVGIFFLSAVPLVCLELRRGIPDIGIKDFLLLCGRILLLLALLTLIISVTTSWLNSFKSPQVYLKEEEEKNEKRQKLVRKKQQEAQGEKASRYIENVLKPHQEMKLRKLEERFYQMTGEAWKLSSGHKLGGDEGTSQTSFETSNREAAKSQNLPKPLTEFPSPAEQPTCKEIPDLPEEPSQTAEEVVTVALRCPSGNVLRRRFLKSYSSQVLFDWMTRIGYHISLYSLSTSFPRRPLAVEGGQSLEDIGITVDTVLILEEKEQTN",
    "REPORTED MEASUREMENT": 59.5
  }
]

Next item in the queue.
Challenge: Tell us which sequence coverage value is on record for Flag-SAKS1 (other, UniProt Q04323 1-297, looked up, also called RDB 2150; not shown: N-terminal Flag tag) MAELTALESLIEMGFPRGRAEKALALTGNQGIEAAMDWLMEHEDDPDVDEPLETPLGHILGREPTSSEQGGLEGSGSAAGEGKPALSEEERQEQTKRMLELVAQKQREREEREEREALERERQRRRQGQELSAARQRLQEDEMRRAAEERRREKAEELAARQRVREKIERDKAERAKKYGGSVGSQPPPVAPEPGPVPSSPSQEPPTKREYDQCRIQVRLPDGTSLTQTFRAREQLAAVRLYVELHRGEELGGGQDPVQLLSGFPRRAFSEADMERPLQELGLVPSAVLIVAKKCPS
Response given: 57.4
